Data provenance: ChEMBL document CHEMBL5120770

system: HCT-116; assay: Cytotoxicity against human HCT-116 cells assessed as cell growth inhibition incubated for 72 hrs by CCK8 assay; format: functional, cell-based; conditions: HCT-116, 72 h
value kind: log10(IC50) (log10 of the value in µM)

CC(=O)c1cccc2c1C(=O)C(N)=C(C(N)=O)C2=O | 1.17
C[C@H]1O[C@@H]2C[C@@H](O)[C@@]1(O)c1c2c(O)c(C(N)=O)c2ncoc12 | 0.83
C[C@H]1O[C@@H]2C[C@@H](O)[C@@]1(O)c1c2c(O)c(C(N)=O)c2nc([C@@H](O)CO)oc12 | 0.75
CC(O)c1cccc2c1C(=O)C(N)=C(C(N)=O)C2=O (stereo not drawn) | 0.32
NC(=O)C1=C(N)C(=O)c2c(O)cccc2C1=O | 1.06
COc1cccc2c1C(=O)c1c(O)c3c(c(O)c1C2=O)C[C@@](O)(C(=O)CO)C[C@@H]3O[C@H]1C[C@H](N)[C@H](O)[C@H](C)O1 | -1.10
C[C@H]1O[C@@H]2C[C@@H](O)[C@@]1(O)c1c2c(O)c(C(N)=O)c2nc([C@@H](O)[C@@H](O)CO)oc12 | 0.64
C[C@H]1O[C@@H]2C[C@@H](O)[C@@]1(O)C1=C2C(=O)C(C(N)=O)=C(N)C1=O | -0.15
